# collection of Ki values tested on Cannabinoid receptor 1 (Rattus norvegicus, UniProt P20272)
# Sequence (P20272 whole entry): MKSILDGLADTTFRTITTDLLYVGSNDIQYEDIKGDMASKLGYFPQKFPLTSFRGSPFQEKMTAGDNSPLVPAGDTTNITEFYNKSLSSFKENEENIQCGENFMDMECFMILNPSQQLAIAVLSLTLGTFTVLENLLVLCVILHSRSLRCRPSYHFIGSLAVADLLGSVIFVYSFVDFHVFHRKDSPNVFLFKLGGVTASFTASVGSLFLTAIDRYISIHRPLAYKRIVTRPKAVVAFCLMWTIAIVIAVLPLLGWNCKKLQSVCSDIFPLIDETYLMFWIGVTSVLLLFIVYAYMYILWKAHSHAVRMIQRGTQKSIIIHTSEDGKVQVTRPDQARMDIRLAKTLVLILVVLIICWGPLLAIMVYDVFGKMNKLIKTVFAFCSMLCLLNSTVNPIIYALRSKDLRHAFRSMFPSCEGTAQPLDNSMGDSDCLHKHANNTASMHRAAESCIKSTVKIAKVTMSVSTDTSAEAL
Express it in nM; write the number only.

Below: 6 molecules and their reported Ki.
CCCCC/C=C\C/C=C\C/C=C\C/C=C\CCCC(=S)NCCO    1380
CCCCC/C=C\C/C=C\C/C=C\C/C=C\CCCC(=O)NCC(O)CC (stereo not drawn)    203
CCCCC/C=C\C/C=C\C/C=C\C/C=C\CCCC(=O)Nc1cccc(O)c1    1560
CCCCC/C=C\C/C=C\C/C=C\C/C=C\CCCC(=O)Nc1ccccc1O    1660
CCCCC/C=C\C/C=C\C/C=C\C/C=C\CCCC(=O)Nc1ccc(O)cc1    1760
CCCCC/C=C\C/C=C\C/C=C\C/C=C\CCCC(=O)NCc1ccc(O)cc1    217

Query string: Can you share its Ki? I mean this molecule: `CCCCC/C=C\C/C=C\C/C=C\C/C=C\CCCC(=O)NC(CO)CO`
Result string: 363
